B1: 5KPH (parent)
chain: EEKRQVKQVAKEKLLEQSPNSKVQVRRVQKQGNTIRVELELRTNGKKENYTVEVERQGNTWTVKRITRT

variants of: B1; assay: folding stability dG (cDNA display proteolysis); higher = more stable; settings: PBS, room temperature
test-readout: folding stability dG (kcal/mol)
Please respond with the number in kcal/mol and leave the unit unwritten.

Sample records with folding stability dG:
[[record]]
variant_spec = "R4C"
unit_info = "kcal/mol"
value_observed = 3.57

[[record]]
variant_spec = "K22A"
unit_info = "kcal/mol"
value_observed = 3.71

[[record]]
variant_spec = "T43D"
unit_info = "kcal/mol"
value_observed = 3.65

[[record]]
variant_spec = "V37T"
unit_info = "kcal/mol"
value_observed = 1.28

[[record]]
variant_spec = "T62F"
unit_info = "kcal/mol"
value_observed = 4.24

[[record]]
variant_spec = "Q57A"
unit_info = "kcal/mol"
value_observed = 3.81


stdin: Check the records and state folding stability dG for "V6P"
stdout: 3.55

stdin: Check the records and state folding stability dG for "R4L"
stdout: 3.54

stdin: Check the records and state folding stability dG for "G58S"
stdout: 3.36

stdin: Check the records and state folding stability dG for "N20H"
stdout: 3.64

stdin: Check the records and state folding stability dG for "K64W"
stdout: 3.08

stdin: Check the records and state folding stability dG for "E16Y"
stdout: 2.61

stdin: Check the records and state folding stability dG for "I35P"
stdout: 0.813

stdin: Check the records and state folding stability dG for "N20T"
stdout: 3.6

stdin: Check the records and state folding stability dG for "N33I"
stdout: 3.38

stdin: Check the records and state folding stability dG for "Q5S"
stdout: 3.84
